- STUDY_TARGET: T1, nSR100 (Mus musculus, UniProt Q8BKA3)
- T1 construct: host or cells: mouse N2A cells
- T1 sequence (Q8BKA3 1-608): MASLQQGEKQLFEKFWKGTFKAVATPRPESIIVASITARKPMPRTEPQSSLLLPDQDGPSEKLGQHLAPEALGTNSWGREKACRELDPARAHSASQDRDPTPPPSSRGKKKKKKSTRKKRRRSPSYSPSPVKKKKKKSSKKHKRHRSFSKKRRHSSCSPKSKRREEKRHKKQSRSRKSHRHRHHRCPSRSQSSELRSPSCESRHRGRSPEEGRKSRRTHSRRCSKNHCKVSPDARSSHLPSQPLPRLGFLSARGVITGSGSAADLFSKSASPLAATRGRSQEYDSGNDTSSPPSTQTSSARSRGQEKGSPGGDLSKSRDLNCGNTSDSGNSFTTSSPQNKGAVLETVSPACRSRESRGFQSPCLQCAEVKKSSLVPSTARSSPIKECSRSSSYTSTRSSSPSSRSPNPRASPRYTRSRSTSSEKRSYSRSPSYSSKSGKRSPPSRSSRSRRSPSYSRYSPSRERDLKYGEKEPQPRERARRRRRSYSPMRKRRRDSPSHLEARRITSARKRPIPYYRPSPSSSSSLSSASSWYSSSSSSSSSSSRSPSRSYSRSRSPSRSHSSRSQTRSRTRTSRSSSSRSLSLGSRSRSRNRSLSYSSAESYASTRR
- METHOD_SUMMARY: AP-MS nSR100 interaction partners from mouse N2A cells (Table 5)
- Assay type: binding
- CONDITIONS: bait Srrm4, 0.1 added to prevent division by 0
MEASUREMENT_LABEL: FoldChange between the prey Avg spectra of the bait and control purifications
No unit in the answer, please; the number alone is enough.

IN: What value of measured FoldChange between the prey Avg spectra of the bait and control purifications is listed for Sap18 (protein, UniProt O55128 2-153, looked up) Histone deacetylase complex …: AVESRVTQEEIKKEPEKPIDREKTCPLLLRVFTTNNGRHHRMDEFSRGNVPSSELQIYTWMDATLKELTSLVKEVYPEARKKGTHFNFAIVFMDLKRPGYRVKEIGSTMSGRKGTDDSMTLQSQKFQIGDYLDIAITPPNRAPPSSGRMRPY ?
OUT: 225

IN: Same question, Rnps1 (protein, UniProt Q99M28 1-305, looked up) RNA-binding protein with …: MDLSGVKKKSLLGVKENNKKSSTRAPSPTKRKDRSDEKSKDRSKDKGATKESSEKDRGRDKTRKRRSASSGSSSTRSRSSSTSSSGSSTSTGSSSGSSSSSASSRSGSSSTSRSSSSSSSSGSPSPSRRRHDNRRRSRSKSKPPKRDEKERKRRSPSPKPTKVHIGRLTRNVTKDHIMEIFSTYGKIKMIDMPVERMHPHLSKGYAYVEFENPDEAEKALKHMDGGQIDGQEITATAVLAPWPRPPPRRFSPPRRMLPPPPMWRRSPPRMRRRSRSPRRRSPVRRRSRSPGRRRHRSRSSSNSSR this time
OUT: 17

IN: Same question, Luc7l2 (protein, UniProt Q7TNC4 1-392, looked up) Putative RNA-binding protein …: MSAQAQMRAMLDQLMGTSRDGDTTRQRIKFSDDRVCKSHLLNCCPHDVLSGTRMDLGECLKVHDLALRADYEIASKEQDFFFELDAMDHLQSFIADCDRRTEVSKKRLAETQEEISAEVAAKAERVHELNEEIGKLLAKVEQLGAEGNVEESQKVMDEVEKARAKKREAEEVYRNSMPASSFQQQKLRVCEVCSAYLGLHDNDRRLADHFGGKLHLGFIEIREKLEELKRVVAEKQEKRNQERLKRREEREREEREKLRRSRSHSKNPKRSRSREHRRHRSRSMSRERKRRTRSKSREKRHRHRSRSSSRSRSRSHQRSRHSSRDRSRERSKRRSSKERFRDQDLASRDRDRSSRDRSPRDRDRKDKKRSYESANGRSEDRRSSEEREAGEI this time
OUT: 4.33

IN: Same question, Grpel1 (protein, UniProt Q99LP6 28-217, looked up) GrpE protein homolog 1, …: CTATKQKNNGQNLDEDLGHCEPKTDPPSADKTLLEEKAKLEEQLRETMEKYKRALADTENLRQRSQKLVEEAKLYGIQGFCKDLLEVADILEKATQSVPKEEISNNNPHLKSLYEGLVMTEVQIQKVFTKHGLLRLDPIGAKFDPYEHEALFHTPVEGKEPGTVALVSKVGYKLHGRTLRPALVGVVKDA this time
OUT: 3.3

Query molecule follows.
IN: What value of measured FoldChange between the prey Avg spectra of the bait and control purifications is listed for Necap1 (protein, UniProt Q9CR95 1-275, looked up) Adaptin ear-binding …: MAAELEYESVLCVKPDVSVYRIPPRASNRGYRASDWKLDQPDWTGRLRITSKGKIAYIKLEDKVSGELFAQAPVEQYPGIAVETVTDSSRYFVIRIQDGTGRSAFIGIGFTDRGDAFDFNVSLQDHFKWVKQETEISKESQEMDNRPKLDLGFKEGQTIKLSIGNITAKKGGASKPRASGTGGLSLLPPPPGGKVTIPPPSSSVAISNHVTPPPIPKSNHGGNDSDILLDLDSPAPVSTSAPAPVSTSNDLWGDFSTASSSVPNQAPQPSNWVQF ?
OUT: 125

src = patent US10772928B2
